system: RAW-Dual; experiment: NF-kB SEAP reporter activity, fold change vs agonist alone; cytotoxicity flag (confluency mask): not cytotoxic; higher = enhanced NF-kB activity; conditions: agonist: LPS (TLR4) 0.1 ug/mL
The full ranking holds about 2,900 compounds; the median of “NF-kB SEAP reporter activity, fold change vs agonist alone” is about 0.99, and the highest 2% start at about 2.6. The full list was thinned out, with the highest values kept by preference.
This section presents compounds with their documented NF-kB SEAP reporter activity values.

Compound: Cl.NCCCCC(N)C(=O)O (stereo not drawn) (library stock concentration (final ~1000-fold dilution): 10 mM water)
System: RAW-Dual
NF-kB SEAP reporter activity: 1.04
//
Compound: CC1(Cn2ccnn2)C(C(=O)O)N2C(=O)CC2S1(=O)=O (stereo not drawn) (library stock concentration (final ~1000-fold dilution): 10 mM)
System: RAW-Dual
NF-kB SEAP reporter activity: 0.971
//
Compound: CCCCCCOC(=O)c1cc(=O)c(O)c2c(O)c(O)c(OC)cc2c1 (library stock concentration (final ~1000-fold dilution): 1 mM)
System: RAW-Dual
NF-kB SEAP reporter activity: 1.14
